- System: Staphylococcus aureus ATCC 6538P
- Assay notes: Anti-bacterial activity, minimum inhibitory concentration by agar dilution method at pH 7.0 (SA)
- Type: cell-based
- Condition: ATCC6538P
Metric: MIC (µg/mL)
Enter your answer as a number in µg/mL; do not include the unit.

Answered examples (5):
Molecule	MIC / µg/mL
CC1C(=O)C2=C(C(=O)C13OCCO3)[C@H](COC(N)=O)[C@@]1(O)[C@@H]3[C@H](CN21)N3C (stereo partly shown) [Compound 2]	2.5
CO[C@@]12[C@H](COC(N)=O)C3=C(C(=O)C(C)(Cl)C4(OCCO4)C3=O)N1C[C@@H]1N[C@@H]12 (stereo partly shown) [Compound 8]	0.039
CO[C@@]12[C@H](COC(N)=O)C3=C(C(=O)C(C)(Br)C4(OCCO4)C3=O)N1C[C@H]1[C@@H]2N1C (stereo partly shown) [Compound 10]	0.63
CO[C@@]12[C@H](COC(N)=O)C3=C(C(=O)C(C)C4(OCCO4)C3=O)N1C[C@@H]1N[C@@H]12 (stereo partly shown) [Compound 1]	0.039
CO[C@@]12[C@H](COC(N)=O)C3=C(C(=O)C(C)C4(OCCO4)C3=O)N1C[C@H]1[C@@H]2N1C (stereo partly shown) [Compound 3]	0.31

Q) Field: MIC (Staphylococcus aureus ATCC 6538P). Entry: CO[C@]12[C@@H]3[C@H](CN1C1=C(C(=O)C4(OCCO4)C(C)C1=O)[C@@H]2COC(N)=O)N3C (stereo partly shown) [Compound 4]
A) 0.63
